- Experimental Target: T1, huFXII-his (human, UniProt P00748 20-615)
- T1 sequence (looked up): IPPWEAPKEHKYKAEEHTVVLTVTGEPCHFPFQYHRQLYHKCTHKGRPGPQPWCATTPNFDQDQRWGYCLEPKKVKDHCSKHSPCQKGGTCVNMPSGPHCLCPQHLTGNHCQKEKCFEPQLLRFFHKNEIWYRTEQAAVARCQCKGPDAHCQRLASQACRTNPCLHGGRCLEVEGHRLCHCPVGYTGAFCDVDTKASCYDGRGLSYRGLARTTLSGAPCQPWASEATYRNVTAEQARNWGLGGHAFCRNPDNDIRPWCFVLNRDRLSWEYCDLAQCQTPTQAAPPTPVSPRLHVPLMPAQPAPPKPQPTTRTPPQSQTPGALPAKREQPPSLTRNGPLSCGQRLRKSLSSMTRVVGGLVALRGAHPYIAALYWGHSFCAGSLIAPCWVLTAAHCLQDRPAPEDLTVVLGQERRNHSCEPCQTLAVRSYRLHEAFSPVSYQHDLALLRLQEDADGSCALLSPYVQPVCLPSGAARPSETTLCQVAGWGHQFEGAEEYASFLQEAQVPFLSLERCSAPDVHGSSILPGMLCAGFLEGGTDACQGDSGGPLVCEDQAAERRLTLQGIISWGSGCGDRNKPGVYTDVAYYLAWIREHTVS
- Procedure Details: cell-based or functional assay
IC50 of inhibition of cleavage of chemical substrate S2302 by FXIIa (OD405) by entry:
Answer format: numeric, µg/mL implied, no suffix.

Binder	Unit Spec	Measured Number
FX-Y17-Y39 (antibody, V domains shown) VH: EVQLLESGGGLVQPGGSLRLSCAGSGFSFGSQTMSWVRQAPGKGLEWVSSISHISGRTYYADSVKGRFTISRDNSKNTLYLQMNSLRAEDTAVYYCTKSHDFDVWGQGTMVTVSS VL: EIVLTQSPATLSVSPGERATLSCRASQSVYSALAWYQQKPGQAPRLLIYGASTRATGIPARFSGSGSGTEFTLTISSLQSEDFAVYYCQQNNKWPLSFGGGTKVEIK	µg/mL	0.0422

As a next step, examine the binder that follows.
Measured IC50 of inhibition of cleavage of chemical substrate S2302 by FXIIa (OD405), FX-Y17-Y35 (antibody, V domains shown) VH: EVQLLESGGGLVQPGGSLRLSCAGSGFSFGSQTMSWVRQAPGKGLEWVSSISVISGRDYYADSVKGRFTISRDNSKNTLYLQMNSLRAEDTAVYYCAKSHAFDVWGQGTMVTVSS VL: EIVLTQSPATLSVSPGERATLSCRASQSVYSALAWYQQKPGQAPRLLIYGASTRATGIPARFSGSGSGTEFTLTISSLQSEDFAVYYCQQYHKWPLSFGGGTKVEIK : 0.0139
